Target: Myeloperoxidase (Homo sapiens)
Assay: Inhibition of human recombinant myeloperoxidase-mediated Apo B-100 oxidation on LDL at 5 uM after 5 min by ELISA
The source made the active and inactive calls. No cut-off for these calls is given here.
reported-property: inhibition

# example entries with known answers
Input line: Given the compound Cn1c(=O)[nH]c(=O)c2c1nc(NCCN)n2CCCOc1ccccc1 , write its reported inhibition.
Output line: 2.6%

Input line: Given the compound COc1ccc2cc(CN(Cc3ccc(F)cc3)C(=S)NCCCN(C)C)c(O)nc2c1 , write its reported inhibition.
Output line: inactive

Input line: Given the compound Oc1ccccc1CN1CCCN(Cc2ccccc2O)C1 , write its reported inhibition.
Output line: 4.5%

Input line: Given the compound COc1cc(-c2nc(-c3ccccc3)c(-c3ccccc3)[nH]2)ccc1OCC(=O)O , write its reported inhibition.
Output line: inactive

Input line: Given the compound C(=N\Nc1nc2ccccc2[nH]1)/c1c[nH]c2ccccc12 , write its reported inhibition.
Output line: inactive

Continuing:
Input line: Given the compound COc1cc(OC)c(C2N=C(N)Nc3nc4ccccc4n32)cc1OC (stereo not drawn) , write its reported inhibition.
Output line: inactive

Input line: Given the compound NC1=Nc2nc3ccccc3n2C(c2ccc(OCC(=O)O)cc2)N1 (stereo not drawn) , write its reported inhibition.
Output line: inactive

Input line: Given the compound COc1ccccc1N1CCN(C(=O)CSc2ncccc2-c2nc3ccccc3[nH]2)CC1 , write its reported inhibition.
Output line: inactive

---

Target: Myeloperoxidase (Homo sapiens) (UniProt P05164)
Assay: Inhibition of human recombinant myeloperoxidase-mediated Apo B-100 oxidation on LDL at 1.25 uM after 5 min by ELISA
Active and inactive are the calls of the source. The rule behind the calls is not given here.
reported-property: inhibition

# example entries with known answers
Input line: Given the compound COc1ccccc1N1CCN(C(=O)CSc2ncccc2-c2nc3ccccc3[nH]2)CC1 , write its reported inhibition.
Output line: inactive

Input line: Given the compound Oc1ccccc1CN1CCCN(Cc2ccccc2O)C1 , write its reported inhibition.
Output line: 62%

Input line: Given the compound Cn1c(=O)[nH]c(=O)c2c1nc(NCCN)n2CCCOc1ccccc1 , write its reported inhibition.
Output line: 11%

Input line: Given the compound COc1cc(OC)c(C2N=C(N)Nc3nc4ccccc4n32)cc1OC (stereo not drawn) , write its reported inhibition.
Output line: inactive

Input line: Given the compound C(=N\Nc1nc2ccccc2[nH]1)/c1c[nH]c2ccccc12 , write its reported inhibition.
Output line: inactive

Input line: Given the compound COc1cc(-c2nc(-c3ccccc3)c(-c3ccccc3)[nH]2)ccc1OCC(=O)O , write its reported inhibition.
Output line: inactive

Input line: Given the compound NC1=Nc2nc3ccccc3n2C(c2ccc(OCC(=O)O)cc2)N1 (stereo not drawn) , write its reported inhibition.
Output line: inactive

Please examine the following record next.
Input line: Given the compound COc1ccc2cc(CN(Cc3ccc(F)cc3)C(=S)NCCCN(C)C)c(O)nc2c1 , write its reported inhibition.
Output line: inactive

---

Reported Rate constant for compound I formation by item:
Molecular target: Myeloperoxidase (Homo sapiens) (UniProt P05164)
Sequence (whole entry): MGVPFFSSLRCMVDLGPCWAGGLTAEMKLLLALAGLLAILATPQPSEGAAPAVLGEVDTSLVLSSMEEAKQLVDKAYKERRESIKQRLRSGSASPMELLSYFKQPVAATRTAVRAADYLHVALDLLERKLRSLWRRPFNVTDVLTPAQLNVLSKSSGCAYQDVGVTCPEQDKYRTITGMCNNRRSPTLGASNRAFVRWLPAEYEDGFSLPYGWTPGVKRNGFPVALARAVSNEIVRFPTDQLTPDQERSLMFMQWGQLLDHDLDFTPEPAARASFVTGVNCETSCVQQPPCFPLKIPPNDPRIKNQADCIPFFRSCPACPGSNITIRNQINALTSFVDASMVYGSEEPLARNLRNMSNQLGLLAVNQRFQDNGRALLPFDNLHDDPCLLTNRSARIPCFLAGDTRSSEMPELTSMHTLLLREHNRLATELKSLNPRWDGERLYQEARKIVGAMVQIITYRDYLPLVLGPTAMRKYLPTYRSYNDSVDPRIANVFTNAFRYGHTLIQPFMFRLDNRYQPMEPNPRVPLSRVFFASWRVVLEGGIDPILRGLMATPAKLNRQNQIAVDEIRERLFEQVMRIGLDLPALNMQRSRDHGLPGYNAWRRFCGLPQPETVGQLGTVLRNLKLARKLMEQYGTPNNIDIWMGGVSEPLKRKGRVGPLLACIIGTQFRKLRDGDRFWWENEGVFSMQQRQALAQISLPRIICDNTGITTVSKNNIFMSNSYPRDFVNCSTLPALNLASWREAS
Experiment: Inhibition of human recombinant myeloperoxidase assessed as compound 1 formation by spectrophotometry in presence of H2O2
Please state the figure in ×10⁶ /M/s; there is no need to write the unit.

# example entries with known answers
Input line: Name the value of Rate constant for compound I formation reported for Oc1ccccc1CN1CCCN(Cc2ccccc2O)C1 when tested on Myeloperoxidase (Homo sapiens) (UniProt P05164).
Output line: 5.1

Input line: Name the value of Rate constant for compound I formation reported for COc1cc(OC)c(C2N=C(N)Nc3nc4ccccc4n32)cc1OC (configuration not stated) when tested on Myeloperoxidase (Homo sapiens) (UniProt P05164).
Output line: 1.4

Input line: Name the value of Rate constant for compound I formation reported for Cn1c(=O)[nH]c(=O)c2c1nc(NCCN)n2CCCOc1ccccc1 when tested on Myeloperoxidase (Homo sapiens) (UniProt P05164).
Output line: 5.1

Continuing:
Input line: Name the value of Rate constant for compound I formation reported for COc1cc(-c2nc(-c3ccccc3)c(-c3ccccc3)[nH]2)ccc1OCC(=O)O when tested on Myeloperoxidase (Homo sapiens) (UniProt P05164).
Output line: 1.9

---

Molecular target: Myeloperoxidase (Homo sapiens, UniProt P05164)
Experiment: Inhibition of recombinant human myeloperoxidase
Reported IC50 by item:
Please state the figure in nM; there is no need to write the unit.

# example entries with known answers
Input line: Given the molecule CS(=O)(=O)Nc1ccc([N+](=O)[O-])cc1Oc1ccccc1 [NIMESULIDE] , write its reported IC50.
Output line: 2100

Input line: Given the molecule NCCc1c[nH]c2ccc(F)cc12 , write its reported IC50.
Output line: 790

Please examine the following record next.
Input line: Given the molecule O=C(NO)c1ccccc1O [SALICYLHYDROXAMIC ACID] , write its reported IC50.
Output line: 3000

---

Reported IC50 by item:
Molecular target: Myeloperoxidase (Homo sapiens, UniProt P05164)
Assay: Inhibition of recombinant human myeloperoxidase assessed as taurine chloramine production after 5 mins by spectrophotometry in presence of H2O2
Type: single protein
Please state the figure in µM; there is no need to write the unit.

# example entries with known answers
Input line: Given the compound COc1cc(-c2nc(-c3ccccc3)c(-c3ccccc3)[nH]2)ccc1OCC(=O)O , write its reported IC50.
Output line: 0.97

Input line: Given the compound COc1ccc2cc(CN(Cc3ccc(F)cc3)C(=S)NCCCN(C)C)c(=O)[nH]c2c1 , write its reported IC50.
Output line: 3.8

Input line: Given the compound C(=N\Nc1nc2ccccc2[nH]1)/c1c[nH]c2ccccc12 , write its reported IC50.
Output line: 12

Please examine the following record next.
Input line: Given the compound NC1=Nc2nc3ccccc3n2C(c2ccc(OCC(=O)O)cc2)N1 (stereo not drawn) , write its reported IC50.
Output line: 3.7

---

Target: Myeloperoxidase (Homo sapiens) (UniProt P05164)
Test: Inhibition of human recombinant myeloperoxidase-mediated Apo B-100 oxidation on LDL at 50 uM after 5 min by ELISA
Active and inactive are the calls of the source. No cut-off for these calls is given here.
reported-property: inhibition

# example entries with known answers
Input line: Name the value of inhibition reported for COc1cc(-c2nc(-c3ccccc3)c(-c3ccccc3)[nH]2)ccc1OCC(=O)O when tested on Myeloperoxidase (Homo sapiens) (UniProt P05164).
Output line: inactive

Input line: Name the value of inhibition reported for Oc1ccccc1CN1CCCN(Cc2ccccc2O)C1 when tested on Myeloperoxidase (Homo sapiens) (UniProt P05164).
Output line: 11%

Input line: Name the value of inhibition reported for COc1ccccc1N1CCN(C(=O)CSc2ncccc2-c2nc3ccccc3[nH]2)CC1 when tested on Myeloperoxidase (Homo sapiens) (UniProt P05164).
Output line: inactive

Input line: Name the value of inhibition reported for COc1cc(OC)c(C2N=C(N)Nc3nc4ccccc4n32)cc1OC (stereo not drawn) when tested on Myeloperoxidase (Homo sapiens) (UniProt P05164).
Output line: inactive

Input line: Name the value of inhibition reported for COc1ccc2cc(CN(Cc3ccc(F)cc3)C(=S)NCCCN(C)C)c(O)nc2c1 when tested on Myeloperoxidase (Homo sapiens) (UniProt P05164).
Output line: inactive

Input line: Name the value of inhibition reported for C(=N\Nc1nc2ccccc2[nH]1)/c1c[nH]c2ccccc12 when tested on Myeloperoxidase (Homo sapiens) (UniProt P05164).
Output line: inactive

Input line: Name the value of inhibition reported for NC1=Nc2nc3ccccc3n2C(c2ccc(OCC(=O)O)cc2)N1 (stereo not drawn) when tested on Myeloperoxidase (Homo sapiens) (UniProt P05164).
Output line: inactive

Continuing:
Input line: Name the value of inhibition reported for Cn1c(=O)[nH]c(=O)c2c1nc(NCCN)n2CCCOc1ccccc1 when tested on Myeloperoxidase (Homo sapiens) (UniProt P05164).
Output line: 6%
